target: CFTR-mediated short-circuit current in F508del/MF-HBE cells (Homo sapiens, UniProt P13569, DEL508-508); construct: human bronchial epithelial (HBE) cells derived from CF subjects; endogenous in cells; host or cells: primary human bronchial epithelial cells from CF subjects (F508del/MF-HBE); experiment: HBE2 assay: Ussing chamber assay of CFTR-mediated short-circuit currents; type: cell-based
Sequence (P13569 with tags, fused parts or gaps DEL508-508): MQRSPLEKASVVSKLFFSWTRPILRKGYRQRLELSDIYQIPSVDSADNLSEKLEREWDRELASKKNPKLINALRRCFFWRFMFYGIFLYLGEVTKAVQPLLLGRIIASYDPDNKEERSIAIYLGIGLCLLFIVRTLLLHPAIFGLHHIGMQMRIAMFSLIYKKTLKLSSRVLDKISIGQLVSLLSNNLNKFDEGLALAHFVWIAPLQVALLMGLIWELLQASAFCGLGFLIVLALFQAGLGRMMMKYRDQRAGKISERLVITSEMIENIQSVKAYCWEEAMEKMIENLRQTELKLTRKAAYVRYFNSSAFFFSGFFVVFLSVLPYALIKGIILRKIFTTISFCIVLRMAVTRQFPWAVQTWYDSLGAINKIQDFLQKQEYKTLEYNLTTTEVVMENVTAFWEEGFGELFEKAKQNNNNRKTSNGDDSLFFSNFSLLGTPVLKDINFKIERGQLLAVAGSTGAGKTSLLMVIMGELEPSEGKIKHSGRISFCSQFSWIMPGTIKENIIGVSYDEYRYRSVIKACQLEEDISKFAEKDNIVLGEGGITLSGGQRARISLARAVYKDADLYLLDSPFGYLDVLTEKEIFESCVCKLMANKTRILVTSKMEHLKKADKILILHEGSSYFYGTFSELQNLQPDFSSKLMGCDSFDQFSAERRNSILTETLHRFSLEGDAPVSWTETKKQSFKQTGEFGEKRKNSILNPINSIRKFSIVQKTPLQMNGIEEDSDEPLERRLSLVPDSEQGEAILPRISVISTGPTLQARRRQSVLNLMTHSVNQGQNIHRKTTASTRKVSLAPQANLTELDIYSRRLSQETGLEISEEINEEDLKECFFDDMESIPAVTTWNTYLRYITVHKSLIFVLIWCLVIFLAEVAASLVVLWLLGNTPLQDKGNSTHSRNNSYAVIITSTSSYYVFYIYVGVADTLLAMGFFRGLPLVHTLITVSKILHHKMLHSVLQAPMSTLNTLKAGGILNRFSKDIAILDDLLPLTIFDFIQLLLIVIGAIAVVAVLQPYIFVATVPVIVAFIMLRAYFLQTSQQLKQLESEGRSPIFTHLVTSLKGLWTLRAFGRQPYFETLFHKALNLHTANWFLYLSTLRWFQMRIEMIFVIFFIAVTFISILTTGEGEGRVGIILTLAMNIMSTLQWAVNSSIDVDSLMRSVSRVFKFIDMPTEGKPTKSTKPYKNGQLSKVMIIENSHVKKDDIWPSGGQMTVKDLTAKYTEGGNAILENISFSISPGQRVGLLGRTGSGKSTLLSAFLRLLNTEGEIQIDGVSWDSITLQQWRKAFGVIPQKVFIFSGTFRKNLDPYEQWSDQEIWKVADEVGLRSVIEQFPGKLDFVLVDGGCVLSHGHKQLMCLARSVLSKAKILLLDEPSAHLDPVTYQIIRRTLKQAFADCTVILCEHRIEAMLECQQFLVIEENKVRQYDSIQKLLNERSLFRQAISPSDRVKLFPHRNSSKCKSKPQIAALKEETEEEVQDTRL

{"columns": ["compound", "HBE2 Activity at 3 μM (%)"],
 "data": [
  ["Cc1cccc(C)c1-c1cc2nc(n1)NS(=O)(=O)c1cccc(c1)C(=O)N1[C@@H](c3ncc(OC(C)C)cn3)CCC[C@@H](O2)[C@H]1CC(C)C (single isomer, unassigned) [Compound 405]", "+++ (+++ is >60%)"],
  ["Cc1cccc(C)c1-c1cc2nc(n1)NS(=O)(=O)c1cccc(c1)C(=O)N1[C@@H](c3ncc(OC(C)C)cn3)CCC[C@@H](CC(C)C)[C@H]1CO2 (single isomer, unassigned) [Compound 394]", "+++ (+++ is >60%)"],
  ["Cc1cccc(C)c1-c1cc2nc(n1)NS(=O)(=O)c1cccc(c1)C(=O)N1[C@@H](c3ncc(OC(C)C)cn3)CCC[C@@H](CC(C)C)[C@H]1CO2 (single isomer, unassigned) [Compound 397]", "+++ (+++ is >60%)"]
]}
